System: U2OS
experiment_description: Multiplex assay against U2OS
Assay type: toxicity, cell-based
condition_context: human, 48 h, 1 µM, compound concentration 1 uM, replicate 2
Each entry gets no (0) if its Population Fragmented Nuclei (%) stays under 10%, and yes (1) if its Population Fragmented Nuclei (%) is 10% or above.

Example entries and their recorded answers appear below.
molecule="CC1=C(C(=O)Nc2cc3cn[nH]c3cc2F)C(c2ccc(C(F)(F)F)cc2)CC(=O)N1 (stereo not given)" class="no (0)"
molecule=COc1cc(Nc2nccc(-c3cnn4nc(OC)ccc34)n2)cc(C(F)(F)F)c1 class="yes (1)"
molecule=C[C@]12CC[C@@H]3c4ccc(O)cc4CC[C@H]3[C@@H]1CC[C@@H]2O class="no (0)"

Ask: Is the recorded value of Population Fragmented Nuclei (%) equal to or greater than 10% for this molecule? CC(C)Oc1ccccc1C(=O)Nc1ccccc1C(=O)Nc1cccc(S(=O)(=O)C(F)(F)F)c1
Result: yes (1)

Ask: Is the recorded value of Population Fragmented Nuclei (%) equal to or greater than 10% for this molecule? Cl.O=C(O)c1cc(-c2ccc(C3CCNCC3)cc2)c2ccc(-c3ccc(C(F)(F)F)cc3)cc2c1
Result: no (0)

Ask: Is the recorded value of Population Fragmented Nuclei (%) equal to or greater than 10% for this molecule? CC(C)NC(=O)N1CC[C@H](NC2=Nc3cc(F)ccc3N(CC(F)F)c3ccc(Cl)cc32)C1
Result: no (0)

Ask: Is the recorded value of Population Fragmented Nuclei (%) equal to or greater than 10% for this molecule? Cc1cccc(CN2CCN(C(c3ccccc3)c3ccc(Cl)cc3)CC2)c1.Cl.Cl (stereo not given)
Result: no (0)

Ask: Is the recorded value of Population Fragmented Nuclei (%) equal to or greater than 10% for this molecule? CN1CCN(Cc2ccc(Nc3ncc(Cl)c(Nc4ccccc4S(=O)(=O)N(C)C)n3)cc2)CC1
Result: yes (1)
